Assay: chemical genetic growth profiling, strain panel (AID 1159580);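 also: tested at 20 µM; growth read once vehicle control cultures reached saturation at 30 °C; 1 = growth at the plate median or of vehicle wells; lower values mean less growth of the strain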
Conditions: S. cerevisiae deletion strains, growth OD, locus YJL115W, strain asf1, active compounds read low
In all, about 5,500 compounds went through this assay and about 2,000 (36%) were called active. Another 18% or so got no clear call; they are omitted. This is one part of the list.
Answer each item with its documented normalized growth.
Numbers only.

[
  {
    "compound": "CC(=O)OC(C)(C)[C@@H]1Cc2cc3ccc(=O)oc3cc2O1",
    "normalized growth": 0.983
  },
  {
    "compound": "CCOC(=O)[C@H](CCc1ccccc1)N[C@H]1CCc2ccccc2N(CC(=O)O)C1=O",
    "normalized growth": 0.969
  },
  {
    "compound": "CC(N)C(=O)OC(C)(C)Cc1ccc(Cl)cc1 (stereo not given)",
    "normalized growth": 1.02
  }
]

Batch: normalized growth for all items listed.
1. CCOC(=O)C(C)(C)Oc1ccc(Cl)cc1
2. CC(=O)O[C@H]1[C@@H]2[C@@H](OC(=O)Cc3ccccc3)[C@@H](C)C[C@]2(OC(C)=O)C(=O)/C(C)=C/[C@H]2[C@H](CC[C@@]13CO3)C2(C)C

Result:
1. 0.965
2. 0.969
